Recorded viability, T/C for the following compounds
System: K12877-001-R-J1-PDC complex spheroid viability
MEASUREMENT_NOTES: Anticancer human tumor K12877-001-R-J1-PDC patient-derived lung adenocarcinoma cell line growth inhibition [RAS]
RUN_CONDITIONS: second compound 10 µM; first compound 10 µM; hits give low values
Report the value in % with no unit label.

CC1(O)CCCC1n1c(=O)c(C(F)F)cc2cnc(NC3CCN(S(C)(=O)=O)CC3)nc21 (stereo not drawn) + C#Cc1c(F)ccc2cc(O)cc(-c3ncc4c(N5CC6CCC(C5)N6)nc(OCC56CCCN5CC(F)C6)nc4c3F)c12    2.77
CC(Nc1ccc2c(c1)OCCn1cc(N3C(=O)OCC3C(F)F)nc1-2)C(N)=O (stereo not drawn) + C#Cc1c(F)ccc2cc(O)cc(-c3ncc4c(N5CC6CCC(C5)N6)nc(OCC56CCCN5CC(F)C6)nc4c3F)c12    23.8

stdin: Given the entry CC(=O)OC12COC1CC(O)C1(C)C(=O)C(O)C3=C(C)C(OC(=O)C(O)C(NC(=O)OC(C)(C)C)c4ccccc4)CC(O)(C(OC(=O)c4ccccc4)C21)C3(C)C (stereo not drawn) + C#Cc1c(F)ccc2cc(O)cc(-c3ncc4c(N5CC6CCC(C5)N6)nc(OCC56CCCN5CC(F)C6)nc4c3F)c12 , report its measured viability, T/C.
stdout: 15.2

stdin: For the compound NC1c2ccccc2OC12CCN(c1cnc3c(N4CCCc5ncccc54)n[nH]c3n1)CC2 (stereo not drawn) + C#Cc1c(F)ccc2cc(O)cc(-c3ncc4c(N5CC6CCC(C5)N6)nc(OCC56CCCN5CC(F)C6)nc4c3F)c12 , what viability, T/C is on record?
stdout: 63.8

stdin: // viability, T/C lookup, key: Cc1nc(N2CCC3(CC2)COC(C)C3N)c(CO)nc1Sc1ccnc(N)c1Cl (stereo not drawn) + C#Cc1c(F)ccc2cc(O)cc(-c3ncc4c(N5CC6CCC(C5)N6)nc(OCC56CCCN5CC(F)C6)nc4c3F)c12
stdout: 84.8

----------
Tested on: K12877-001-R-J1-PDC complex spheroid viability
MEASUREMENT_NOTES: Anticancer human tumor K12877-001-R-J1-PDC cell line growth inhibition [RAS]; active = viability on the fitted dose curve at most 10% of control; inactive = the rest;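 note: tumour cells co-cultured with HUVEC and mesenchymal stem cells in spheroids; spheroids exposed to agents for one week before readout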
RUN_CONDITIONS: compound 10 µM
Please answer using one outcome listed in Yes = active, No = inactive

A selection of reference data follows.
Cc1nc(N2CCC3(CC2)COC(C)C3N)c(CO)nc1Sc1ccnc(N)c1Cl (stereo not drawn)    No
CC(=O)OC12COC1CC(O)C1(C)C(=O)C(O)C3=C(C)C(OC(=O)C(O)C(NC(=O)OC(C)(C)C)c4ccccc4)CC(O)(C(OC(=O)c4ccccc4)C21)C3(C)C (stereo not drawn)    Yes

Next item in the queue.
stdin: Which result was noted for this compound in the test: CCC(CC)c1cc(NC2CCC(N)C2)n2nccc2n1 (stereo not drawn)
stdout: Yes

----------
// reported viability, T/C for each item listed
System: K12877-001-R-J1-PDC complex spheroid viability
MEASUREMENT_NOTES: Anticancer human tumor K12877-001-R-J1-PDC cell line growth inhibition [RAS];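 note: tumour cells co-cultured with HUVEC and mesenchymal stem cells in spheroids; spheroids exposed to agents for one week before readout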
RUN_CONDITIONS: second compound 0.316 µM; first compound 0.0316 µM; hits give low values
Excerpt: RAS pathway inhibitors in Combinations in Complex Spheroids A high-throughput screen of multi-cell type tumor spheroids was designed to identify active combinations of RAS pathway inhibitors and targeted small molecules. Complex spheroids include a stromal component modeled by human endothelial cells (HUVEC) and fibroblasts modeled by human mesenchymal stem cells (MSCs). […] Compounds. […] If the clinical Cmax for an agent had not been determined, the highest concentration tested was 10 microM. […]
# value in %; strip the unit string

Solved entries (count: 4):
CC(C)n1nc(-c2ccc3oc(N)nc3c2)c2c(N)ncnc21 + C#Cc1c(F)ccc2cc(O)cc(-c3ncc4c(N5CC6CCC(C5)N6)nc(OCC56CCCN5CC(F)C6)nc4c3F)c12    42.5
CCC(CC)c1cc(NC2CCC(N)C2)n2nccc2n1 (stereo not given) + C=CC(=O)N1CCN(c2nc(OCC3CCCN3C)nc3c(F)c(-c4nc(N)cc(C)c4C(F)(F)F)c(Cl)cc23)C(C)C1    88.3
CC(C)n1nc(-c2ccc3oc(N)nc3c2)c2c(N)ncnc21 + C=CC(=O)N1CCN(c2nc(OCC3CCCN3C)nc3c(F)c(-c4nc(N)cc(C)c4C(F)(F)F)c(Cl)cc23)C(C)C1    25.5
NC1c2ccccc2OC12CCN(c1cnc3c(N4CCCc5ncccc54)n[nH]c3n1)CC2 (stereo not given) + C=CC(=O)N1CCN(c2nc(OCC3CCCN3C)nc3c(F)c(-c4nc(N)cc(C)c4C(F)(F)F)c(Cl)cc23)C(C)C1    81.5

Now take the following compound into account.
stdin: Please look up its viability, T/C: CCC(CC)c1cc(NC2CCC(N)C2)n2nccc2n1 (stereo not given) + C#Cc1c(F)ccc2cc(O)cc(-c3ncc4c(N5CC6CCC(C5)N6)nc(OCC56CCCN5CC(F)C6)nc4c3F)c12
stdout: 114
